Test system: Saccharomyces cerevisiae
Experiment: protein stability index of tFT-peptide fusion (C-terminal peptide) (PSI (0-1 scale)); higher = more stable (slower turnover)
Conditions: genetic background: wild type; temperature: 30 C
Would you mind telling me the reported protein stability index of each entry?
Numbers only.

query_sequence="LIVSFFYKRNAL [IQG1 C-terminal 12 aa]" measured_result=0.584
query_sequence="ERDTTTKPSKRR [KEL3 C-terminal 12 aa]" measured_result=0.698

Dear colleague, could you send me protein stability index for each of the items below? Thanks.
1. EEHHFYREHIFT [OCA4 C-terminal 12 aa]
2. IVCGDGSIHWFQ [FAU1 C-terminal 12 aa]
3. VYENNSYPNSHT [RTT105 C-terminal 12 aa]

result:
1. 0.712
2. 0.769
3. 0.678
